assay: Superoxide radical scavenging activity at 1 mM upon incubation for 2 min at RT in pH 7.4 with PMS, NADH and NBT by nitroblue tetrazolium method
Items are presented alongside their recorded Scavenging Activity.
Give just the number in %; leave the unit off.

O=c1ccc2ccc(O)c(CN3CCOCC3)c2o1
58.3
O=c1ccc2ccc(O)cc2o1 [UMBELLIFERONE]
80.6
O=c1ccc2ccc(O)c(CNCCc3ccccc3)c2o1
22.2
O=c1ccc2ccccc2o1 [COUMARIN]
88.9
CC(=O)CC(c1ccccc1)c1c(O)c2ccccc2oc1=O (stereo not drawn) [WARFARIN]
25

## Input Please look at this compound and report its Scavenging Activity: O=C(O)/C=C/c1ccc(O)c(O)c1
## Output 86.1

## Input Supply measured Scavenging Activity of CC(C)CNCc1c(O)ccc2ccc(=O)oc12 in your reply.
## Output 33.3

## Input Supply reported Scavenging Activity belonging to this compound: NCCCNCc1c(O)ccc2ccc(=O)oc12
## Output 50

====

experiment: Percent heme protein dependent lipid peroxidation at (1 mM) upon incubation for 10 min at 37 degree C. in pH 7.4 with arachidonic acid and H2O2; format: functional
The entries below are paired with their reported Lipid peroxidation.
Field format: number, assumed %, no unit text.

Some compounds with recorded Lipid peroxidation:
O=c1ccc2ccc(O)cc2o1
26.1
CCNCc1c(O)ccc2ccc(=O)oc12
5.5
O=c1ccc2ccc(O)c(CNCc3ccccc3)c2o1
35.6
CCCCCN(CCCCC)Cc1c(O)ccc2ccc(=O)oc12
13.7
O=c1ccc2ccc(O)c(CNCCc3ccccc3)c2o1
5.5
CCCCCNCc1c(O)ccc2ccc(=O)oc12
5.7
O=c1ccc2ccc(O)c(CN3CCOCC3)c2o1
19.9
NCCNCc1c(O)ccc2ccc(=O)oc12
22.1
O=c1ccc2ccccc2o1
19.2
O=c1ccc2ccc(O)c(CN3CCCCC3)c2o1
7.6

## Input Kindly indicate its recorded Lipid peroxidation. Item: O=C(O)/C=C/c1ccc(O)c(O)c1
## Output 5.5

## Input Answer with reported Lipid peroxidation of O=c1ccc2ccc(O)c(CN3CCNCC3)c2o1
## Output 21.9

## Input Given the compound CC(Cc1ccc(O)c(O)c1)C(C)Cc1ccc(O)c(O)c1 (stereo not drawn) , write its reported Lipid peroxidation.
## Output 26.1

====

Measured pIC50 by item
Molecular target: UniProt:P08170
Sequence (P08170 whole entry): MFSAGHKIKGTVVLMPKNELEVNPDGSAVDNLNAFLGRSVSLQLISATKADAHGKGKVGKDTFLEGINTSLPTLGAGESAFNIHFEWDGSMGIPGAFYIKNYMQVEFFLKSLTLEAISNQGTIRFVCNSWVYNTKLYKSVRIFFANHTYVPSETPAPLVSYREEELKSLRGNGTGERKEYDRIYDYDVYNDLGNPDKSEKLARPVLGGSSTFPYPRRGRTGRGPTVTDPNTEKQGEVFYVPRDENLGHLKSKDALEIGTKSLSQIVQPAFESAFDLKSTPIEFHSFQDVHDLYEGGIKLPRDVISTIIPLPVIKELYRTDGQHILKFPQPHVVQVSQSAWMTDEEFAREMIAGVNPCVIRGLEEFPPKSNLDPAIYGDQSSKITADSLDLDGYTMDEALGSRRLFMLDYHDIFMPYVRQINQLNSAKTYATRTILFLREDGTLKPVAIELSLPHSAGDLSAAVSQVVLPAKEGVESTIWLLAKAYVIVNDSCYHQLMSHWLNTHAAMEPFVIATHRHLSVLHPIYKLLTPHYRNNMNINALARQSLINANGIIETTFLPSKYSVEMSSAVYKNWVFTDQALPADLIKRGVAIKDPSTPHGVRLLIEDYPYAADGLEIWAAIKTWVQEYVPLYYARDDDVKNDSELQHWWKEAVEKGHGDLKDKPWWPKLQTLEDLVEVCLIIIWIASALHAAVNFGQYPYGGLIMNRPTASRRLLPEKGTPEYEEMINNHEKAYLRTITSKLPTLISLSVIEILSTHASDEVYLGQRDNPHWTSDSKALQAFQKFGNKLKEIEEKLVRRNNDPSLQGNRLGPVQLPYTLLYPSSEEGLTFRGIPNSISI
Experiment: Inhibitory concentration against soybean lipoxygenase upon incubation with sodium linoleate (0.1 mM) at RT
Please keep in mind that pIC50 is minus log10 of the molar concentration; only the number is needed.

Some entries whose results are on file:
O=c1ccc2ccc(O)cc2o1
4.37
CCCCCNCc1c(O)ccc2ccc(=O)oc12
4.23
CCNCc1c(O)ccc2ccc(=O)oc12
4.28
O=c1ccc2ccc(O)c(CN3CCNCC3)c2o1
4.00
O=c1ccc2ccc(O)c(CN3CCCCC3)c2o1
4.43

Turning now to a further record.
## Input Write down pIC50 measured for item CN1COc2ccc3ccc(=O)oc3c2C1
## Output 4.38

====

target: Seed linoleate 13S-lipoxygenase-1 (Glycine max); test: Inhibitory concentration against soybean lipoxygenase upon incubation with sodium linoleate (0.1 mM) at RT
Below: a set of entries, each annotated with reported pIC50.
API: returns pIC50 as number; meaning -log10 of concentration in mol/L.

## Input # return recorded pIC50 for entry CCCCCN(CCCCC)Cc1c(O)ccc2ccc(=O)oc12
## Output 4.89

## Input Specify reported pIC50 for the compound shown: O=c1ccc2ccc(O)c(CNCc3ccccc3)c2o1
## Output 4.36

## Input Tell me measured pIC50 for O=c1ccc2ccc(O)c(CNCCc3ccccc3)c2o1 please.
## Output 4.39

## Input Report pIC50, nothing else, for this compound: CC(C)CNCc1c(O)ccc2ccc(=O)oc12
## Output 4.33
